experimental-system: oxytocin receptors (Rattus norvegicus, UniProt P70536)
Construct: The uteri are dissected out, cleaned of fat and connective tissues; from tissue; host or cells: uterus membranes of DES-treated female Sprague-Dawley rats
Sequence (P70536 1-388): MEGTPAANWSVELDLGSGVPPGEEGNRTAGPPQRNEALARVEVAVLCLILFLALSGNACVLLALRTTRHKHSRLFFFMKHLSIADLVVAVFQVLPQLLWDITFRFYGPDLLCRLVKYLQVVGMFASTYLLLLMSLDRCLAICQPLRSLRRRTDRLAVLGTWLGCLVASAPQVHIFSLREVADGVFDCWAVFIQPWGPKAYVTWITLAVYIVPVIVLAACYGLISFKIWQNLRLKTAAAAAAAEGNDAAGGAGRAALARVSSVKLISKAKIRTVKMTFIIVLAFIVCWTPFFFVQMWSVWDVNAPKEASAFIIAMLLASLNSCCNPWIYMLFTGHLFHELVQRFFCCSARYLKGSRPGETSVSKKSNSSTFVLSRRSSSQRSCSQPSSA
test-method-notes: Oxytocin Receptor Binding
Parameters: species or system Sprague-Dawley rats
protocol-conditions: 1.0 nM [3H]oxytocin
Procedure: Oxytocin Receptor Binding Female Sprague-Dawley rats weighing approximately 200-250 g are injected intramuscularly (i.m.) with 0.3 mg/kg of body weight of diethylstilbestrol (DES). The rats are sacrificed 18 hours later under pentobarbital anesthesia. The uteri are dissected out, cleaned of fat and connective tissues and rinsed in 50 ml of normal saline. […]
parameter-measured: IC50 (µM)

**Query** Consider the compound shown here: Cc1ccccc1CC(=O)Nc1ccc(C(=O)N2CCCCc3sccc32)cc1 What is its recorded IC50?
**Result** 0.68

a: O=C(Nc1ccc(C(=O)N2CCCCc3sccc32)cn1)c1ccccc1-c1ccccc1
b: O=C(Nc1ccc(C(=O)N2CCCCc3sccc32)cc1)c1cc(Cl)ccc1Cl
**Query** Lab note: check whether a or b has the lower measured IC50. Selection: enter the item's label.
**Result** a
(a: 0.17 µM, b: 5.2 µM)

P: Cc1ccc(F)cc1C(=O)Nc1ccc(C(=O)N2CCCCc3sccc32)c(Cl)c1
Q: Cc1ccccc1C(=O)Nc1ccc(C(=O)N2CCCCc3sc(Cl)cc32)cc1
R: O=C(Nc1ccc(C(=O)N2CCCCc3sc(Cl)cc32)cc1)c1ccc(Cl)cc1Cl
**Query** In this exercise, place the 3 compounds in ascending sequence of their recorded IC50. Reply with the labels, ordered as the question asks.
**Result** Q, P, R
(Q: 0.27 µM, P: 0.51 µM, R: 1.8 µM)

a: O=C(Nc1ccc(C(=O)N2CCCCc3sccc32)c(Cl)c1)c1ccc(F)cc1Cl
b: Cc1ccc(F)cc1C(=O)Nc1ccc(C(=O)N2CCCCc3sccc32)cn1
**Query** Which entry shows the lesser value of IC50 here, a or b ? Identify your pick by its label.
**Result** b
(b: 0.34 µM, a: 0.6 µM)

====

experimental-system: Rat Kidney Medullary V2 Receptors (vasopressin V2) (Rattus norvegicus, UniProt Q00788)
Construct: Medullary tissues from rat kidneys are dissected out; from tissue; host or cells: rat kidney medulla membranes
Sequence (Q00788 whole entry): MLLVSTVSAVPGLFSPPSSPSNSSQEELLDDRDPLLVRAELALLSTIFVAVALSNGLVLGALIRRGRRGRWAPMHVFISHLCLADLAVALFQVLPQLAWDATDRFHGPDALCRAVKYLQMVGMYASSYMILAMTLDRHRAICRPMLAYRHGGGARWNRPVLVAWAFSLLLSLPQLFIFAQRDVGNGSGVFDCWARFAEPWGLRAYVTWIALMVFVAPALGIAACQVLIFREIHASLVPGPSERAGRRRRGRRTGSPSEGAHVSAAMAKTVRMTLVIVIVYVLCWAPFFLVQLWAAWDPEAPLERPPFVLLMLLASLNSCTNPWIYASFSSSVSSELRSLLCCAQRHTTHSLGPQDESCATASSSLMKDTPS
test-method-notes: Binding Assay to Rat Kidney Medullary V2 Receptors
protocol-conditions: rat kidney medullary V2, [3H]Arg8-vasopressin
parameter-measured: IC50 (µM)

**Query** Please report the recorded IC50 for O=C(Cc1ccccc1Cl)Nc1ccc(C(=O)N2CCCCc3sc(Cl)cc32)cc1 .
**Result** 0.0033

P: O=C(Cc1ccccc1Cl)Nc1ccc(C(=O)N2CCCCc3sccc32)cc1
Q: Cc1ccccc1C(=O)Nc1ccc(C(=O)N2CCCCc3sc(Cl)cc32)cc1
R: O=C(Nc1ccc(C(=O)N2CCCCc3sccc32)cc1)c1ccc(Cl)cc1Cl
S: O=C(Nc1ccc(C(=O)N2CCCC(=O)c3sccc32)cc1)c1ccc(Cl)cc1Cl
**Query** Put the items in sequence by IC50, from largest down. List the labels in the requested order.
**Result** S, R, Q, P
(S: 0.33 µM, R: 0.03 µM, Q: 0.01 µM, P: 0.0026 µM)

====

experimental-system: Rat Hepatic V1 Receptors (vasopressin V1) (Rattus norvegicus)
Construct: Rat liver plasma membranes expressing the vasopressin V1 receptor subtypes are isolated by sucrose density gradient; from tissue; host or cells: rat liver plasma membranes
Sequence (P30560 whole entry): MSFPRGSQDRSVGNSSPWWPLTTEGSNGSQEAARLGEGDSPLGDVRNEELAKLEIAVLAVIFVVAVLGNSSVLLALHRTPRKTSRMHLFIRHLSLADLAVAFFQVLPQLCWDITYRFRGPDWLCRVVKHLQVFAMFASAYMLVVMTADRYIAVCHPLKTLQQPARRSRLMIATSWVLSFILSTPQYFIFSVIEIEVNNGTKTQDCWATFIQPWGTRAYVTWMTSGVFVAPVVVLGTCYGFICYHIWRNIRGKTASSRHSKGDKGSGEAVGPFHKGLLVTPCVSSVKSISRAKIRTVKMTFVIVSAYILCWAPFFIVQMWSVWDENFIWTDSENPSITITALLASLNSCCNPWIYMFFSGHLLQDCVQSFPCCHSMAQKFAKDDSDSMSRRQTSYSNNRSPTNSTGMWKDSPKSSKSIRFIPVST
test-method-notes: Binding Assay to Rat Hepatic V1 Receptors
protocol-conditions: rat hepatic V1, [3H]vasopressin
Description: Binding Assay to Rat Hepatic V1 Receptors Rat liver plasma membranes expressing the vasopressin V1 receptor subtypes are isolated by sucrose density gradient according to the method described by Lesko et al., (1973). […] The radioactivity trapped on the filter disk by the ligand-receptor complex is assessed by liquid scintillation counting in a Packard LS Counter, with an efficiency of 65% for tritium. The data are analyzed for IC50 values by the LUNDON-2 program for competition (LUNDON SOFTWARE, OH).
parameter-measured: IC50 (µM)

Please review the entries below; each comes with its answer.
**Query** Param item = Cc1ccc(F)cc1C(=O)Nc1ccc(C(=O)N2CCCCc3sccc32)cn1 [Example 243] ; retrieve measured IC50.
**Result** 0.068

**Query** May I ask what IC50 has been recorded for O=C(Cc1ccccc1Cl)Nc1ccc(C(=O)N2CCCCc3sc(Cl)cc32)cc1 [Example 99] ?
**Result** 0.02

**Query** Fill blank: measured IC50 of the compound O=C(Nc1ccc(C(=O)N2CCCCc3sccc32)cc1)c1ccco1 [Example 4] is ____.
**Result** 0.4

**Query** Please give the measured IC50 for this compound: O=C(Nc1ccc(C(=O)N2CCCCc3sccc32)cn1)c1ccccc1-c1ccccc1 [Example 252]
**Result** 0.068

A: Cc1ccccc1CC(=O)Nc1ccc(C(=O)N2CCCCc3sccc32)cc1 [Example 13]
B: O=C(Nc1ccc(C(=O)N2CCCCc3sccc32)cc1)c1coc2c1C(=O)CCC2 [Example 179]
**Query** Kindly identify the item with the lower IC50 figure among these two: A and B Return value: the label identifying the chosen record.
**Result** A
(A: 0.014 µM, B: 1.3 µM)

A: O=C(Nc1ccc(C(=O)N2CCCCc3sccc32)cc1)c1ccc(Cl)c(Cl)c1 [Example 1]
B: Cc1ccccc1C(=O)Nc1ccc(C(=O)N2CCCC(=O)c3sccc32)cc1 [Example 157]
**Query** Compare the recorded IC50 of A and B ; state which is larger. Response format: the label of the selected entry.
**Result** B
(B: 3.6 µM, A: 1.65 µM)

P: CCCCc1ccc(C(=O)Nc2ccc(C(=O)N3CCCCc4sccc43)cc2)cc1 [Example 6]
Q: O=C(Nc1ccc(C(=O)N2CCCCc3sc(Cl)cc32)cc1)c1ccc(Cl)cc1Cl [Example 93]
**Query** // max by IC50 over [ P , Q ] Mark your answer with the label of the selected entry.
**Result** P
(P: 50 µM, Q: 0.23 µM)

P: Cc1ccccc1C(=O)Nc1ccc(C(=O)N2CCCCc3sccc32)cc1 [Example 3]
Q: Cc1ccc(C)c(C(=O)Nc2ccc(C(=O)N3CCCCc4sccc43)cc2)c1 [Example 8]
**Query** Of P and Q , whose reported IC50 is the larger number? To answer, give the label that identifies your chosen option.
**Result** Q
(Q: 0.2 µM, P: 0.077 µM)
